Catalogue of viability, T/C values
system: 677734-321-R-J1-PDC complex spheroid viability; test: Anticancer human tumor 677734-321-R-J1-PDC patient-derived soft tissue sarcoma cell line growth inhibition [POLQ]; conditions: second compound 3.16 µM; first compound 10 µM; hits give low values;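 also: spheroids exposed to compounds for one week; 100% = vehicle DMSO treated spheroids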
The answer is to be given in %; state only the numeric part.

CC1COCCN1c1cc(-c2ccnn2C)c2ccnc(-c3ccn[nH]3)c2n1 (stereo not drawn) + Cc1cccc(N(C)C(=O)C2C(O)CCN2c2nc(C)cc(C(F)(F)F)c2C#N)c1 = 18.6
CC1COCCN1c1cc(C2(S(C)(=N)=O)CC2)nc(-c2ccnc3[nH]ccc23)n1 (stereo not drawn) + Nc1ccc(C#CCN(C(=O)Cc2ncc(C(F)(F)F)cc2C(F)(F)F)c2ccc(F)cc2)nn1 = 8.55

API: the following record is the query input.
# compound O=C(Nc1ccc(O)c(NS(=O)(=O)c2ccc(F)cc2)c1)c1ccc(-c2ccccc2)cc1 + Nc1ccc(C#CCN(C(=O)Cc2ncc(C(F)(F)F)cc2C(F)(F)F)c2ccc(F)cc2)nn1 ; its viability, T/C = 19.9
